# target-or-system: HA of ca A/Beijing/262/95 (H1N1) (influenza A virus)
# procedure-text: cell-based or functional assay
# Lookup of reported Neutralization IC50, H1-BJ95 keyed by entry
Give the number; µg/mL is assumed, so skip it.

binder: Antibody 3 (antibody, V domains shown) VH: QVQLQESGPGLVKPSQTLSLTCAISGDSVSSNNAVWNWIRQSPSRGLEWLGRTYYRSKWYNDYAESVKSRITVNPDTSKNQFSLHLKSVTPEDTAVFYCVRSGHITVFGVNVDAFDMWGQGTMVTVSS VL: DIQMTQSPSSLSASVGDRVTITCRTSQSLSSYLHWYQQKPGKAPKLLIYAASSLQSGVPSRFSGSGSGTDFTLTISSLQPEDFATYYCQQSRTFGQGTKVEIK
display-unit: µg/mL
Neutralization IC50, H1-BJ95: 2.98

In: Name the reported Neutralization IC50, H1-BJ95 value associated with the binder Antibody 15 (antibody, V domains shown) VH: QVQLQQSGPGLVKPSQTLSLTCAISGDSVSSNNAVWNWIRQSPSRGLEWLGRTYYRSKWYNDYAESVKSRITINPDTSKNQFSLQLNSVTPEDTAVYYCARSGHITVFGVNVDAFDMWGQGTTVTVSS VL: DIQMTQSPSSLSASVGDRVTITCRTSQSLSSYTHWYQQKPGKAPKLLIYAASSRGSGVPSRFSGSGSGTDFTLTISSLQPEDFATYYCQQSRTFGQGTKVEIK
Out: 1.81

This collection of values is drawn from patent US20160257732A1.
